Cited source for all entries: patent US20240150298A1

Test system: K. pneumoniae ATCC13883
experiment-summary: Bacterial susceptibility testing, MIC by broth microdilution (CLSI)
Type: cell-based
study-conditions: Klebsiella pneumoniae, ATCC13883, broth microdilution, 35° C., 18-24 h; read-out: MIC K. pneumoniae ATCC13883
Labelling: MIC reported below 8 mg/L becomes t; at or above becomes f.

- C[C@H](O)c1nccn1C/C=C/c1ccc(-c2ccc(OCCN3CCN(CCN)CC3)cc2)cc1: t
- C[C@H](O)c1nccn1[C@@H](/C=C/c1ccc(-c2ccc(OCCC(O)CO)cc2)cc1)CO (mixture of isomers): t
- C[C@H](O)c1nccn1[C@@H](/C=C/c1ccc(-c2ccc(OCC(CO)N(C)C)cc2)cc1)CO (mixture of isomers): f
- C[C@H](O)c1nccn1[C@@H](/C=C/c1ccc(-c2ccc(C3CC(C(=O)NCC(O)CO)C3)cc2)cc1)CO (stereo partly drawn): f
- C[C@H](O)c1nccn1[C@@H](/C=C/c1ccc(-c2ccc(OCC(N)CO)cc2)cc1)CCO (mixture of isomers): f
- C[C@H](O)c1nccn1[C@@H](/C=C/c1ccc(-c2ccc(O[C@H]3COC[C@@H]3O)cc2)cc1)CO (racemic): t
- C[C@H](O)c1nccn1[C@@H](/C=C/c1ccc(-c2ccc(C3CC(NC(C#N)CO)C3)cc2)cc1)CO (stereo partly drawn): t
- C[C@H](O)c1nccn1[C@@H](/C=C/c1ccc(-c2ccc(O[C@H]3C[C@@H]3N)cc2)cc1)CO (single isomer, unassigned) [Compound 14]: t
- COC(CN)COc1ccc(-c2ccc(/C=C/[C@@H](CO)n3ccnc3[C@H](C)O)cc2)cc1 (mixture of isomers): f
- COC[C@H](N)COc1ccc(-c2ccc(/C=C/[C@@H](CO)n3ccnc3[C@H](C)O)cc2)cc1: t
- C[C@H](O)c1nccn1[C@@H](/C=C/c1ccc(-c2ccc(OC3CCN(CCO)CC3)cc2)cc1)CCO: f
- C[C@H](O)c1nccn1[C@@H](/C=C/c1ccc(-c2ccc(C3CC(N4CC(O)C4)C3)cc2)cc1)CO (stereo partly drawn): t
- C[C@H](O)c1nccn1[C@@H](/C=C/c1ccc(-c2ccc(OCC(N)(CO)CO)cc2)cc1)CO: f
- C[C@H](O)c1nccn1[C@@H](/C=C/c1ccc(-c2ccc(C3CC(NCC(F)(F)CO)C3)cc2)cc1)CO (stereo partly drawn): t
- C[C@H](O)c1nccn1[C@@H](/C=C/c1ccc(-c2ccc(O[C@H]3C[C@@H]3N)cc2)cc1)CO (racemic) [Compound 13]: t
- C[C@H](O)c1nccn1[C@@H](/C=C/c1ccc(-c2ccc(OC[C@@H](O)CN(C)C)cc2)cc1)CO: t
